# assayedSystem: T1, Rap1-DBD (Saccharomyces cerevisiae, UniProt P11938 360-598)
# T1 sequence: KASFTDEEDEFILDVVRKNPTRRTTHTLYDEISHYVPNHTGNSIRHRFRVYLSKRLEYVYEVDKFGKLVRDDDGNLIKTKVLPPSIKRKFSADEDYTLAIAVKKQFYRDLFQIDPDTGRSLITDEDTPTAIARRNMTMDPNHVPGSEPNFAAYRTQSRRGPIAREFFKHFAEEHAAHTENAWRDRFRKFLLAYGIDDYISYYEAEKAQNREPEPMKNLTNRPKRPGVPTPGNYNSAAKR
# assayProtocol: EMSA
assayReadout: Kd (nM)
The response must be a number in nM with no trailing unit.

Observe how each entry below is paired with its result.
TGGGTGTGTGGGTGTGTGGGTGTGTGGG (structured_DNA) [4-G3 no tail] ... 22
TTGGGTGGGTGGGTGGGTT (structured_DNA) [T-loops] ... 45

# next binder below
(Q) # input binder: AATTCTGGGTGTGTGGGTGTGTGGGTGTGTGGGTGTGG (structured_DNA) [4-G3] ; wanted: its Kd
(A) 28
